Target: HLA-A*30:02
Experiment: IEDB peptide-MHC binding, purified MHC/competitive/radioactivity; filed as Kd, often an IC50 or EC50 that approximates it; bounds were set here for any values at or beyond the usual limits of such assays
Conditions: source organism: SARS coronavirus Tor2
readout.label: Kd

LYLTQDLFL | ≥ 81.1 µM
TYASALWEI | ≥ 81.1 µM

// next entry
Under HLA-A*30:02, report Kd for LFLAFVVFL ≥ 34.3 µM

###

Target: HLA-A*02:02
Test: IEDB peptide-MHC binding, purified MHC/competitive/radioactivity; filed as Kd, often an IC50 or EC50 that approximates it; bounds were set here for any values at or beyond the usual limits of such assays
Conditions: source organism: Vaccinia virus WR
I'd be grateful if you could share measured Kd for these entries.
Give bare numbers, in µM.

GMSIVCIVA | 0.19
CLEAKTHFST | 12.4
TIDNIVTSL | 0.178

Batch lookup, Kd per entry.
1. IILFQNNDI
2. SLALKNSQA
3. NMKPNFWSRI
4. RVKQWVMDT
5. SIDHCSSFI

11.3
0.662
1.68
3.63
0.631

Batch lookup, Kd per entry.
1. ILANERYRSA
2. FISIYSRPKI
3. SVDAMIHKT

1. 0.104
2. 0.0228
3. 5.02
